Provenance of the data: the METLIN SMRT retention time set (Domingo-Almenara et al. 2019)

Catalogue of molecules with associated RP-LC retention time
# protocol-text: gradient 5% acetonitrile 3 min, to 50% in 2 min, to 85% in 15 min, held 3 min, 100 µL/min
# condition-description: column: Zorbax Extend-C18 2.1 x 50 mm; eluents: water / acetonitrile, 0.1% formic acid
Report as a plain number; the unit s is understood.

Cc1nc(-c2cc(S(=O)(=O)NCc3ccc(OC(C)C)cc3)c(C)s2)cs1 1080
O=C(Nc1cccc(Cl)c1)N1CCC(N2CCN(Cc3ccccc3)C(=O)C2=O)CC1 736

Ask | What value of RP-LC retention time has been recorded for this entry: `Cc1nc(-c2ccc(F)cc2)nc2c1CCC(=O)N2Cc1ccco1`
Reply | 720

Ask | Would you mind telling me what RP-LC retention time value was observed for `O=C(Nc1ccc(Cl)c([N+](=O)[O-])c1)Nc1nc2ccccc2s1` ?
Reply | 1050

Ask | Which RP-LC retention time value is on record for `Cc1ccccc1Cn1cc(-c2ccncc2)cc1C(=O)NC1CC1` ?
Reply | 648

====

# protocol-text: gradient 5% acetonitrile 3 min, to 50% in 2 min, to 85% in 15 min, held 3 min, 100 µL/min
# condition-description: column: Zorbax Extend-C18 2.1 x 50 mm; eluents: water / acetonitrile, 0.1% formic acid
If the reported RP-LC retention time equals or exceeds 800 s, assign MET. If not, assign NOT MET.

For orientation, consider the following solved cases.
compound	assigned-category
COc1ccc(C(=O)NCc2ccc3c(c2)OCO3)nn1	NOT MET
O=C(Nc1ccc(Cl)cc1)c1cccnc1-n1cc(-c2ccncc2)cn1	NOT MET
COc1ccc(S(=O)(=O)N2CCCC(C(=O)NCCC3=CCCCC3)C2)cc1Cl (stereo not given)	MET
CCCNc1cc(N2CCC(CCC(=O)NC3CCN(Cc4ccccc4)CC3)CC2)ncn1	NOT MET
COC(=O)c1c(-c2ccccc2)noc1NCc1ccc(OC)cc1OC	MET

Ask | Is reported RP-LC retention time greater than or equal to 800 s here: `CCOC(=O)c1ccccc1NC(=O)N1CCN(c2ccc(=O)n(-c3ccccc3)n2)CC1`
Reply | MET

Ask | # bool: RP-LC retention time of `CCCn1cc(CCNS(=O)(=O)c2ccc(C(C)C)cc2)c2cccnc21` >= 800 s
Reply | MET

====

# protocol-text: gradient 5% acetonitrile 3 min, to 50% in 2 min, to 85% in 15 min, held 3 min, 100 µL/min
# condition-description: column: Zorbax Extend-C18 2.1 x 50 mm; eluents: water / acetonitrile, 0.1% formic acid
measured-quantity: RP-LC retention time (s)
Record the value in s, omitting the unit from your answer.

Previously resolved entries follow.
compound	units	RP-LC retention time
CNS(=O)(=O)CCCOc1ccc2c(c1)OCO2	s	697
O=C(Nc1cccn2nc(C3CC3)nc12)c1cccs1	s	788

Ask | Value lookup for RP-LC retention time; key = `O=S(=O)(c1ccccc1-c1nc(-c2ccccc2)no1)N1CCN(C2CCCCC2)CC1`
Reply | 755

Ask | Requested read-out: RP-LC retention time. Entry: `CCOC(=O)c1c(S(=O)(=O)N2CCC(C(=O)Nc3cccc(Cl)c3)CC2)c(C)n(C)c1C`
Reply | 932

Ask | Dear colleague, I am looking for the recorded RP-LC retention time of the following compound: COc1cc(OC)cc(C(=O)N2CCC3(C2)C(=O)Nc2ccccc23)c1 (stereo not given)
Reply | 707
